Test system: HeLa-ACE2 cells
Experiment: cells
Settings: Homo sapiens, HeLa-ACE2, read-out: HeLa-ACE2 cell count EC50 GeoMean
pEC50: −log10 of the molar value. Structures can show the parent of a compound that is named as a salt. Residues, ends and D or L forms follow the SMILES beside them. *: point of attachment. Cbz = O=C(OCc1ccccc1)*; CHN2 = [N-]=[N+]=C*
REPORTED_METRIC: pEC50

MOLECULE	TARGET_OR_TEST_SYSTEM	pEC50
CC(C)CC(NC(=O)OCc1ccccc1)C(=O)NC(C(=O)NCC(=O)C=[N+]=[N-])C(C)C (stereo not drawn) [Z LVG CHN2] (Cbz-Leu-Val-Gly-CHN2; configuration not given here)	HeLa-ACE2 cells	< 5.02
Cc1c(-c2ccc(O)cc2)n(Cc2ccc(OCCN3CCCCCC3)cc2)c2ccc(O)cc12 [Bazedoxifene acetate]	HeLa-ACE2 cells	< 5.07
COC(=O)C1=C(C)NC(C)=C(C(=O)OCCN2CCN(C(c3ccccc3)c3ccccc3)CC2)C1c1cccc([N+](=O)[O-])c1 (stereo not shown)	HeLa-ACE2 cells	< 5.02

Request: Entry under review: CCN(CCO)CCCC(C)Nc1ccnc2cc(Cl)ccc12 (stereo not shown) [Hydroxychloroquine sulfate] . Reported pEC50?
Response: < 5.23
